# test: OS2 (OPTISAFE2), OPTISAFE formulation with antioxidants
# assay.context: Table 7B; repeat 3, with antioxidants; predicted GHS class
measure: OS2 R3

molecule="CCN(CC)C(=O)c1cccc(C)c1 [n,n-Diethyl-m-toluamide]" measure="OS2 R3" readout_number=1
molecule="c1ccc(OP(Oc2ccccc2)Oc2ccccc2)cc1 [Triphenyl phosphite]" measure="OS2 R3" readout_number=1
molecule="CC(C)=O [Acetone]" measure="OS2 R3" readout_number=2
molecule="O.O.O.O.[Na+].[O-]B1OO1 [Sodium perborate tetrahydrate]" measure="OS2 R3" readout_number=1

====

# assay.context: pH 6.36
Flag rule - OS2 (with antioxidant) Score AVG less than 10 flags Met; the remaining entries get Not met.

molecule=CCOCCOCC answer_label="Not met"
molecule=CCOCCOCCO answer_label="Not met"
molecule="C=C(C)C(=O)OCCOCC [2-Ethoxyethyl methacrylate]" answer_label="Not met"
molecule=C=Cc1ccccc1 answer_label=Met
molecule=OCCOCCOCCO answer_label=Met
molecule=C=CCCCCCCC=C answer_label="Not met"
